experiment: in vitro; conditions: rat, gh3-tre-luc cells, AC50 (uM) modified / 1000
Where a name gives a salt, the structure may show the parent alone.
Could you please report measured CC50 at 24 h for the items listed next?

**Q:** Specify measured CC50 at 24 h for Cc1ccc(C)c2ccccc12 [1,4-Dimethylnaphthalene] .
**A:** > 90 µM

**Q:** Assign CC50 at 24 h to the following record: COc1cc2nc(N3CCN(C(=O)C4COc5ccccc5O4)CC3)nc(N)c2cc1OC (centres unmarked) [Doxazosin mesylate]
**A:** 25.4 µM

**Q:** Return value of CC50 at 24 h for input Cc1cc(OI)c(C(C)C)cc1-c1cc(C(C)C)c(OI)cc1C [Thymol iodide] , no commentary.
**A:** > 50 µM

**Q:** # return recorded CC50 at 24 h for input O=C1OCCO1 [1,3-Dioxolan-2-one]
**A:** > 100 µM

**Q:** Query CC50 at 24 h for OCCN1CCN(CC/C=C2/c3ccccc3Sc3ccc(Cl)cc32)CC1 [Zuclopenthixol dihydrochloride]
**A:** 8.55 µM

**Q:** Give the reported value of CC50 at 24 h for this record: O=C(NC(=O)c1c(F)cccc1F)Nc1ccc(Oc2ccc(C(F)(F)F)cc2Cl)cc1F [Flufenoxuron]
**A:** 34.6 µM

**Q:** Item CSC1=N[C@@](C)(c2ccccc2)C(=O)N1Nc1ccccc1 [Fenamidone] : provide CC50 at 24 h
**A:** > 90 µM

**Q:** # return recorded CC50 at 24 h for entry CCC(C)(C)c1ccc(CC(C)CN2C[C@@H](C)O[C@@H](C)C2)cc1 (some centres unmarked) [Amorolfine]
**A:** 11.1 µM

**Q:** Fill in CC50 at 24 h for record Cc1ccc(S)cc1 [4-Thiocresol]
**A:** > 90 µM

**Q:** Tell me CC50 at 24 h reported for CC(C)=CCC/C(C)=C\CO [(2Z)-3,7-Dimethylocta-2,6-dien-1-ol]
**A:** > 90 µM

**Q:** Please give the documented CC50 at 24 h of CC(C)CC(=O)OCc1ccccc1 [Benzyl 3-methylbutanoate]
**A:** > 90 µM

**Q:** Please look at this compound and report its CC50 at 24 h: CN(C(=O)c1c(O)c2ccccc2n(C)c1=O)c1ccccc1 [Roquinimex]
**A:** > 50 µM

**Q:** Provide measured CC50 at 24 h value, entry: C[C@@H](O)[C@H]1C(=O)N2C(C(=O)[O-])=C(SC3Cn4cnc[n+]4C3)[C@H](C)[C@H]12 (some centres unmarked) [Biapenem]
**A:** > 50 µM

**Q:** Consider the compound Cc1nc(N)nc(N)n1 [6-Methyl-1,3,5-triazine-2,4-diamine] and give its recorded CC50 at 24 h.
**A:** > 90 µM

**Q:** In one line, give reported CC50 at 24 h of the entry CCN(CC)C(=O)c1cccnc1 [N,N-Diethylnicotinamide] .
**A:** > 50 µM

**Q:** For the compound CCOC(=O)[C@H](CCc1ccccc1)N[C@@H](C)C(=O)N1CCC[C@H]1C(=O)O [Enalapril] , give its measured CC50 at 24 h value.
**A:** > 50 µM

**Q:** Retrieve CC50 at 24 h measured for C/C=C/C1=C(C(=O)O)N2C(=O)[C@@H](NC(=O)[C@H](N)c3ccc(O)cc3)[C@H]2SC1 [Cefprozil monohydrate] and print it.
**A:** > 50 µM

**Q:** State, in one line, measured CC50 at 24 h of O=C(COc1ccc(Cl)cc1)OCCNC12CC3CC(CC(C3)C1)C2 [Adafenoxate]
**A:** > 50 µM

**Q:** Return CC50 at 24 h (reported value) for this compound: C1=CCC2CC=CC2C1 (centres unmarked) [3a,4,7,7a-Tetrahydroindene]
**A:** > 90 µM

**Q:** Tell me CC50 at 24 h reported for COc1cc(C(C)=O)ccc1OCCCN1CCC(c2noc3cc(F)ccc23)CC1 [Iloperidone]
**A:** 15.2 µM

**Q:** Annotate the compound O=C(CCN1CCC(c2ccccc2)C1)c1ccc2c(c1)OCCO2 (centres unmarked) [Proroxan] with its measured CC50 at 24 h.
**A:** 38.9 µM

**Q:** Indicate its recorded CC50 at 24 h; the compound in question is CCCCCCCC/C=C\CCCCCCCCCCCC(=O)O [(13Z)-Docos-13-enoic acid]
**A:** > 90 µM

**Q:** Specify CC50 at 24 h for CC(N)CN (centres unmarked) [1,2-Diaminopropane] and stop.
**A:** > 100 µM

**Q:** Note down CC50 at 24 h recorded for Cc1cc2nc3c(=O)[nH]c(=O)nc-3n(C[C@H](O)[C@H](O)[C@H](O)COP(=O)(O)OP(=O)(O)OC[C@H]3O[C@@H](n4cnc5c(N)ncnc54)[C@H](O)[C@@H]3O)c2cc1C [Flavin adenine dinucleotide disodium]
**A:** > 50 µM

**Q:** Given COc1ccc(-c2coc3cc(O)cc(O)c3c2=O)cc1 [Biochanin A] , respond with its CC50 at 24 h.
**A:** > 90 µM

**Q:** Find the measured CC50 at 24 h of N#CCCN(CCO)CCO and report it.
**A:** > 90 µM

**Q:** Give the measured CC50 at 24 h for Nc1cc(Cl)c(N)c(Cl)c1 [2,6-Dichloro-1,4-benzenediamine]
**A:** > 90 µM

**Q:** Return the recorded CC50 at 24 h value; entry: CC(=O)O[C@H]1C[C@H](O[C@H]2[C@@H](O)C[C@H](O[C@H]3[C@@H](O)C[C@H](O[C@H]4CC[C@@]5(C)[C@H](CC[C@@H]6[C@@H]5CC[C@]5(C)[C@@H](C7=CC(=O)OC7)[C@@H](O)C[C@]65O)C4)O[C@@H]3C)O[C@@H]2C)O[C@H](C)[C@H]1O[C@@H]1O[C@H](CO)[C@@H](O)[C@H](O)[C@H]1O [Lanatoside B]
**A:** > 50 µM

**Q:** Supply CC50 at 24 h value. Item: NC(=O)c1ccccc1N [2-Aminobenzamide]
**A:** > 90 µM

Hello, the source for this data is paper PMC6792352, in case you need it.
